Ref: patent US9512114B2

# protocol-description: Compound stability in rat liver microsomes
# Format: in vitro ADME
# measurement-conditions: liver microsomes, pH 7.4; in vivo CLint extrapolated from rat liver microsome incubation
Catalogue of CLint scaled at 5 μM values
Only the number, expressed in mL/min/kg, is required.

Take a look at these entries with their results.
INSERT INTO results (molecule, observed_result) VALUES
  ('CC[C@H](Nc1ncnc(N)c1-c1nc(C)no1)c1cc2cccc(C)c2c(=O)n1-c1ccccc1 [Ex. 2]', 418),
  ('CC[C@H](Nc1ncnc(N)c1-c1noc(C)n1)c1cc2cccc(-c3cnn(C)c3)c2c(=O)n1C1CC1 [Ex. 31]', 26.1),
  ('CC[C@H](Nc1ncnc(N)c1-c1ncn(C)n1)c1cc2cccc(Cl)c2c(=O)n1C1CC1 [Ex. 20]', 100),
  ('Cc1noc(-c2c(N)ncnc2N[C@@H](C)c2cc3cccc(-c4cnn(C)c4)c3c(=O)n2-c2ccccc2)n1 [Ex. 28]', 72.7),
  ('CC[C@H](Nc1ncnc(N)c1-c1nnn(C)n1)c1cc2cccc(Cl)c2c(=O)n1C1CC1 [Ex. 13]', 137);

// query Which CLint scaled at 5 μM reading was recorded for the molecule C[C@H](Nc1ncnc(N)c1-c1nnn(C)n1)c1cc2cccc(Cl)c2c(=O)n1-c1ccccc1 [Ex. 15] ?
// result 99.9

// query And then CC[C@H](Nc1ncnc(N)c1-c1nc(C)no1)c1cc2cccc(Cl)c2c(=O)n1-c1ccccc1 [Ex. 3] , what is it?
// result 148

// query And then CC[C@H](Nc1ncnc(N)c1-c1noc(C)n1)c1cc2cccc(F)c2c(=O)n1-c1ccccc1 [Ex. 18] , what is it?
// result 330

// query And then Cc1noc(-c2c(N)ncnc2N[C@@H](C)c2cc3cccc(Cl)c3c(=O)n2C2CC2)n1 [Ex. 24] , what is it?
// result 190

// query And then CC[C@H](Nc1ncnc(N)c1-c1nnc(C)o1)c1cc2cccc(C)c2c(=O)n1C1CC1 [Ex. 6] , what is it?
// result 324

// query And then CC[C@H](Nc1ncnc(N)c1-c1nc(C)no1)c1cc2cccc(-c3cnn(C)c3)c2c(=O)n1C1CC1 [Ex. 32] , what is it?
// result 21.2

// query And then CC[C@H](Nc1ncnc(N)c1-c1nc(C)no1)c1cc2cccc(Cl)c2c(=O)n1C1CC1 [Ex. 7] , what is it?
// result 250
